# run.description: Clearance in Sprague-Dawley rat liver microsomes measured up to 30 mins in presence of NADPH by HPLC-MS/MS analysis
# Format: ADME, Microsome
# conditions: read-out: CLH
Positions of bridges follow the written chain, without caps; N, C: chain ends. Non-standard residues stand in square brackets, D forms with d. Residues, ends and D or L forms follow the SMILES beside them. NMeF = CN[C@@H](Cc1ccccc1)C(=O)O; NMeNle = CCCC[C@H](NC)C(=O)O; Nle = CCCC[C@H](N)C(=O)O
outcome.measure: microsomal CLint

Completed entries (count: 3):
compound: CCCC[C@@H]1NC(=O)[C@H](Cc2ccccc2)N(C)C(=O)[C@@H]2CCCN2C(=O)[C@H](CCCC)N(C)C(=O)[C@H](Cc2ccccc2)NC(=O)CSC[C@@H](C(=O)NC)NC(=O)[C@H](CCCC)N(C)C1=O ({CH2CO}-F[NMeNle]P[NMeF][Nle][NMeNle]C-NHMe; thioether N-7)
microsomal CLint: ≥ 480 µL/min/mg
--
compound: CCCC[C@@H]1NC(=O)[C@H](Cc2ccccc2)NC(=O)CSC[C@@H](C(=O)NC)NC(=O)[C@H](CCCC)N(C)C(=O)[C@H](CCCC)N(C)C(=O)[C@H](CCCC)N(C)C(=O)[C@H](CCCC)NC(=O)[C@H](CCCC)N(C)C1=O ({CH2CO}-F[Nle][NMeNle][Nle][NMeNle][NMeNle][NMeNle]C-NHMe; thioether N-8)
microsomal CLint: ≥ 120 µL/min/mg
--
compound: CCCC[C@@H]1NC(=O)[C@H](Cc2ccccc2)N(C)C(=O)CSC[C@H](C(=O)NC)N(C)C(=O)[C@H](CCCC)NC(=O)[C@H](CCCC)N(C)C(=O)[C@H](CCCC)NC1=O
microsomal CLint: ≥ 350 µL/min/mg

Now let's try a different one.
**Q:** Answer with the recorded microsomal CLint for the compound listed here: CCCC[C@@H]1NC(=O)[C@H](CCCC)NC(=O)[C@H](CCCC)NC(=O)[C@@H](Cc2ccccc2)NC(=O)CSC[C@H](C(=O)NC)NC(=O)[C@H](CCCC)NC1=O
**A:** ≥ 350 µL/min/mg

Cited source for all entries: ChEMBL document CHEMBL4808165
